// Emax at 3 µM lookup, one value per entry
# TGT: TRPV1 receptor (Rattus norvegicus)
# Sequence (O35433 whole entry): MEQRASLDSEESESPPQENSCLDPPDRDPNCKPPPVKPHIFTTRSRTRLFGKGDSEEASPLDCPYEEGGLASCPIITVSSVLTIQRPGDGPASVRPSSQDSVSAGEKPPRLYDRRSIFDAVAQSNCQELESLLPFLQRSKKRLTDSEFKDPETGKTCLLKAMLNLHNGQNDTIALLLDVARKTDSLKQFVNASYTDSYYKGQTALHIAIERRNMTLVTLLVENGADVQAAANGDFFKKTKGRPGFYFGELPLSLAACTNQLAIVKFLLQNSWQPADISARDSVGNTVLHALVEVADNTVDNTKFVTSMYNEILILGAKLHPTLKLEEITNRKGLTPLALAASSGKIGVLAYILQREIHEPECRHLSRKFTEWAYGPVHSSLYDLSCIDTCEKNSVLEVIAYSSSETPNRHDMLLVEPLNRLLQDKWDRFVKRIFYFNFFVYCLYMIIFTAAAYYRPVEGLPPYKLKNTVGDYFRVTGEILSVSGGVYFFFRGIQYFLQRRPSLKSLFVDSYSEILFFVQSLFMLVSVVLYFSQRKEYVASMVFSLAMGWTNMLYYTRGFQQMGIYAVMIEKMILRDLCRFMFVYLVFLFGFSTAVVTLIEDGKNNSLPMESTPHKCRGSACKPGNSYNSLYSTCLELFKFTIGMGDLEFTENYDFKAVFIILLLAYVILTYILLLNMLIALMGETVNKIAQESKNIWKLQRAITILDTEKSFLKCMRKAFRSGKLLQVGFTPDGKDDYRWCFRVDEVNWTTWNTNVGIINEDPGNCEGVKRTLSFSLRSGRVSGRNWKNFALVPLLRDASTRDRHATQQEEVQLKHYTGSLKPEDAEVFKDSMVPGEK
# ASSAY OVERVIEW: TRPV1 modulation in DRG neurones: CGRP release in absence and presence of capsaicin (Assay 2)
# Assay type: cell-based
# Design: The culture used for this experiment contained sensory neurones, Schwann cells and fibroblasts; endogenous in cells; host or cells: primary rat DRG sensory neurone culture (with Schwann cells and fibroblasts)
# CONDITION DETAILS: 20 min; test compound alone 3 μM, rat DRG sensory neurones, 20 min; read-out: CGRP release (% of capsaicin (1 μM) response)
Unit % implied. Number only.

>  <COMPOUND>
COC(=O)c1ccc(C(=O)CC(=O)CCc2ccc(O)c(OC)c2)cc1

>  <Emax at 3 µM (%)>
48

$$$$
>  <COMPOUND>
COc1cc(CCC(=O)C(C)(C)C(=O)c2ccccc2)ccc1O

>  <Emax at 3 µM (%)>
22

$$$$
>  <COMPOUND>
COc1cc(CCC(=O)CC(=O)c2ccc(C(C)(C)C)cc2)ccc1O

>  <Emax at 3 µM (%)>
66

$$$$

*Q* Hi! What's the reported Emax at 3 µM for COc1cc(CCC(=O)CC(=O)C(c2ccccc2)c2ccccc2)ccc1O on TRPV1 receptor (Rattus norvegicus)?
*A* 70

*Q* Hi! What's the reported Emax at 3 µM for COc1cc(CCC(=O)CC(=O)c2ccc(F)cc2)ccc1O on TRPV1 receptor (Rattus norvegicus)?
*A* 46

*Q* Hi! What's the reported Emax at 3 µM for COc1cc(CCC(=O)C(Cc2ccccc2)C(=O)c2ccccc2)ccc1O (stereo not drawn) on TRPV1 receptor (Rattus norvegicus)?
*A* 75

* * *

# Tested on: histamine-induced contractions in guinea pig ileum
# ASSAY OVERVIEW: Inhibition of histamine-induced contractions in guinea pig ileum (Assay 3)
# CONDITION DETAILS: Cavia porcellus; 30 μM; histamine 1.7 μM; read-out: Inhibition of histamine-induced contraction (%)
Label y when inhibition at 30 µM is at or above 30%; anything below gets n.

Field: example entries. Status: answers known.
>  <COMPOUND>
COc1cc(CCC(=O)CC(=O)c2cccc3ccccc23)ccc1O [Compound 27]

>  <DISCRETE LABEL>
y

$$$$
>  <COMPOUND>
COc1cc(CCC(=O)C(Cc2ccccc2)C(=O)c2ccccc2)ccc1O (stereo not shown) [Compound 13]

>  <DISCRETE LABEL>
y

$$$$
>  <COMPOUND>
COc1cc(CCC(=O)CC(=O)c2ccccc2C)ccc1O [Compound 84]

>  <DISCRETE LABEL>
y

$$$$
>  <COMPOUND>
COc1cc(CCC(=O)CC(=O)c2ccc(Cl)cc2)ccc1O [Compound 21]

>  <DISCRETE LABEL>
y

$$$$
>  <COMPOUND>
COc1cc(/C=C/C(=O)CC(=O)C(C)(C)C)ccc1O [Compound 34]

>  <DISCRETE LABEL>
n

$$$$

*Q* Textbook exercise: given the entry COc1cc(CCC(=O)CC(=O)c2ccc3ccccc3c2)c(Cl)cc1O [Compound 86] , state whether its inhibition at 30 µM is greater than or equal to 30%.
*A* n

*Q* Textbook exercise: given the entry COc1cc(CCC(=O)C(C)C(=O)C(C)(C)C)ccc1O (stereo not shown) [Compound 4] , state whether its inhibition at 30 µM is greater than or equal to 30%.
*A* n

*Q* Textbook exercise: given the entry COc1cc(CCC(=O)CC(=O)c2ccc3ccccc3c2)ccc1O [Compound 26] , state whether its inhibition at 30 µM is greater than or equal to 30%.
*A* y

*Q* Textbook exercise: given the entry COc1cc(CCC(=O)CC(=O)c2ccccc2Cl)ccc1O [Compound 74] , state whether its inhibition at 30 µM is greater than or equal to 30%.
*A* y

*Q* Textbook exercise: given the entry COc1cc(CCC(=O)CC(=O)c2ccc(C#N)cc2)ccc1O [Compound 82] , state whether its inhibition at 30 µM is greater than or equal to 30%.
*A* n

*Q* Textbook exercise: given the entry COc1cc(CCC(=O)CC(=O)C(C)(C)C)ccc1O [Compound 2] , state whether its inhibition at 30 µM is greater than or equal to 30%.
*A* n

*Q* Textbook exercise: given the entry COc1cc(CCC(=O)C(C)(C)C(=O)C2(C)CC2)ccc1O [Compound 70] , state whether its inhibition at 30 µM is greater than or equal to 30%.
*A* n

*Q* Textbook exercise: given the entry COc1cc(CCC(=O)C(C)(C)C(=O)C(C)(C)C)ccc1O [Compound 71] , state whether its inhibition at 30 µM is greater than or equal to 30%.
*A* y
